Assay: Quantitative highthroughput screen to assess conditional lethalithy of SEM cells grown in Human Plasma-Like Medium with dialyzed fetal bovine serum (HPLM+ds) (AID 1963882); further: nearly all actives have a fitted effect of over 35% in size; further: potency means the concentration at half of the fitted maximal effect
Conditions: SEM B-ALL cells in HPLM+ds, CellTiter-Glo viability, 48 h; series mostly up to 45.8 µM
Results filed as inconclusive are left out. The source made the active and inactive calls. The call rests on the fitted dose curve; in most records, active means well fitted cell-killing curve with a large enough effect; inconclusive means small, poorly fitted or top-dose-only effect, or effect the other way; inactive means no such curve, though single readings can be large or run the other way.
ENDPOINT: Potency

Examples with their reported Potency follow.
{"columns": ["COMPOUND", "Potency"],
 "data": [
  ["C[N+]1(C)[C@@H]2C[C@@H](OC(=O)C(O)(c3cccs3)c3cccs3)C[C@H]1[C@@H]1O[C@@H]12", "inactive"],
  ["Cc1cc(C(C)Nc2ccccc2)c2nc(N3CCOCC3)cc(=O)n2c1 (centres undefined)", "inactive"],
  ["Cn1c2ccccc2c2c3c(c4c5ccccc5n(CCC#N)c4c21)CNC3=O", "0.372 µM (active)"],
  ["Cc1cc(C=c2sc3nc4ccccc4n3c2=O)c(C)n1-c1ccccc1", "inactive"],
  ["N#CCNC(=O)c1ccc(-c2ccnc(Nc3ccc(N4CCOCC4)cc3)n2)cc1", "11.8 µM (active)"]
]}

Request: GET /values?readout=Potency&item= COC(=O)C1=C(C)NC(C)=C(C(=O)OCCN2CCN(C(c3ccccc3)c3ccccc3)CC2)C1c1cccc([N+](=O)[O-])c1 (centres undefined)
Result: inactive

Request: Also check `O=C(O)[C@@H](c1ccc(OCc2ccc3ccccc3n2)cc1)C1CCCC1`
Result: inactive

Request: Now consider `COc1ccc2nc3cc(Cl)ccc3c(Nc3cc(CN4CCCC4)c(O)c(CN4CCCC4)c3)c2n1` .
Result: 16.6 µM (active)

Request: Please do the same for CCOc1ccccc1OCCNC(C)Cc1ccc(OC)c(S(N)(=O)=O)c1 (centres undefined) as well.
Result: inactive

---

Assay: Quantitative highthroughput screen to assess conditional lethalithy of P12 Ichikawa cells grown in RPMI1640 with untreated serum (RPMI+s) (AID 1963881); further: nearly all actives have a fitted effect of over 35% in size
Details: ATP luminescence, 48 h; viability; series mostly up to 45.8 µM
Procedure: Assay Provider: Jason Cantor Ph.D. Department of Biochemistry University of Wisconsin-Madison, Madison, WI, USA Chemical screening studies have identified drug sensitivities across hundreds of cancer cell lines but most putative therapeutics fail to translate. […] Sets of conditional anticancer compounds spanned phases of clinical development and included non-oncology drugs were assessed. […] 6; Detection; Luminescence, Viewlux PerkinElmer. […]
Inconclusive results are not listed. Active and inactive are the calls of the source. The call rests on the fitted dose curve; in most records, active means well fitted cell-killing curve with a large enough effect; inconclusive means small, poorly fitted or top-dose-only effect; inactive means flat fitted curve, though single readings scatter.
Mark one answer only. Choices: active, inactive

Request: # outcome recorded in this test, key = `C1=CCOCc2cc(ccc2OCCN2CCCC2)Nc2nccc(n2)-c2cccc(c2)OCC1`
Result: active

Request: Same thing, different compound: `C[C@](N)(Cc1ccc(O)c(O)c1)C(=O)O`
Result: inactive

Request: Subsequent entry: `COc1ccc([C@@H]2CNC(=O)C2)cc1OC1CCCC1`
Result: inactive

Request: Follow-up entry: `COC(=O)C=CC(=O)OC`
Result: active

Request: Next record, please: CCC(C)SSc1ncc[nH]1 (stereo not given)
Result: active

---

Assay: Quantitative highthroughput screen to assess conditional lethalithy of SEM cells grown in RPMI1640 with unreated serum (RPMI+s) (AID 1963883); further: nearly all actives have a fitted effect of over 35% in size
Conditions: SEM B-ALL cells, CellTiter-Glo viability, 48 h; series mostly up to 45.8 µM
Records with an inconclusive call do not appear. The source made the active and inactive calls. Calls come from the whole dose curve; as a rule, active = well fitted cell-killing curve with a large enough effect; inconclusive = small, poorly fitted or top-dose-only effect, or effect the other way; inactive = no such curve, though single readings can be large or run the other way.
Entry note: the call must match one of YES for active, NO for inactive

Request: What did the test return for `CC(C)(O)Cn1c(NC(=O)c2ccc(-c3cn[nH]c3)s2)nc2cc(CN3CCOCC3)ccc21` ?
Result: YES

Request: Same question, `COC[C@H](NC(=O)c1cnc(C)s1)C(=O)N[C@@H](COC)C(=O)N[C@@H](Cc1ccccc1)C(=O)[C@@]1(C)CO1` this time
Result: YES

Request: Cool, now `NC(=O)c1cccc2[nH]c(-c3ccc([C@H]4CCCN4)cc3F)nc12`
Result: YES

Request: For `Clc1ccc(C2(c3ccc(-c4cn[nH]c4)cc3)CCNCC2)cc1` then?
Result: YES

Request: Repeat with `CC(C)C[C@H](NC(=O)[C@@H](NC(=O)c1cccc(-c2ccccc2)n1)[C@@H](C)O)B(O)O`
Result: YES

Request: What do we get for `CC[C@H](C)n1cc(C)c2c(C(=O)NCc3c(C)cc(C)[nH]c3=O)cc(-c3ccc(N4CCNCC4)nc3)cc21` ?
Result: NO

Request: Also, `OCCC#Cc1nc(-c2ccc(F)cc2)c(-c2ccncc2)n1CCCc1ccccc1` please.
Result: NO

Request: What would you report for `Cc1ccc(C(=O)N(CCCN)[C@@H](c2nc3cc(Cl)ccc3c(=O)n2Cc2ccccc2)C(C)C)cc1` ?
Result: YES

Request: Record: CC[C@@H]([C@H](C)O)n1ncn(-c2ccc(N3CCN(c4ccc(OCC5CO[C@@](Cn6cncn6)(c6ccc(F)cc6F)C5)cc4)CC3)cc2)c1=O (stereo partly drawn)
Result: NO

Request: Also, `C=CC1=C(C(=O)O)N2C(=O)[C@@H](NC(=O)C(=NO)c3csc(N)n3)[C@H]2SC1` please.
Result: NO

Request: Queued: CCNC(=O)CCCC=CC[C@@H]1[C@H](C=CC(O)CCc2ccccc2)[C@@H](O)C[C@@H]1O (stereo partly drawn)
Result: NO

Request: Could you do the same for `CN(C)c1cc(NC(=O)CNC(C)(C)C)c(O)c2c1C[C@@H]1C[C@H]3[C@H](N(C)C)C(=O)C(C(N)=O)=C(O)[C@@]3(O)C(=O)C1=C2O` , please?
Result: NO

Request: Try this compound too: `COc1cc2c(Nc3ccc(NC(=O)c4ccccc4)cc3)ncnc2cc1OCCCN1CCOCC1`
Result: YES

Request: Here is the next compound: `O=C(NCCO[N+](=O)[O-])c1cccnc1`
Result: NO

Request: What about `Cc1ccc(Nc2nccc(N(C)c3ccc4c(C)n(C)nc4c3)n2)cc1S(N)(=O)=O` ?
Result: YES

Request: Now consider `CCCCc1oc2ccccc2c1C(=O)c1cc(I)c(OCCN(CC)CC)c(I)c1` .
Result: NO

Request: Same question for `C[C@@H](NC(=O)c1ncnc(N)c1Cl)c1ncc(C(=O)Nc2cc(C(F)(F)F)c(Cl)cn2)s1` please.
Result: NO

Request: What about this compound? `c1ccc(-c2nn3c(c2-c2ccnc4cc(OCCN5CCOCC5)ccc24)CCC3)nc1`
Result: NO

Request: Okay, and `c1cnc2cc3c(cc2n1)C1CNCC3C1` ?
Result: NO

Request: # iterate: N#CC(c1ccc(Cl)cc1)c1c(Cl)cc(-n2ncc(=O)[nH]c2=O)cc1Cl (stereo not drawn)
Result: NO

Request: And then `Cn1cnc(-c2cc3nccc(Oc4ccc(NC(=S)NC(=O)Cc5ccccc5)cc4F)c3s2)c1` , what is it?
Result: YES

Request: Queued: `CC(=O)[C@H]1CC[C@H]2[C@@H]3CC=C4C[C@@H](O)CC[C@]4(C)[C@H]3CC[C@]12C`
Result: NO

Request: And the next one, `CNC(=O)Nc1ccc(-c2nc(N3CC4CCC(C3)O4)c3cnn(C4CCC5(CC4)OCCO5)c3n2)cc1` ?
Result: YES

Request: Here is the next compound: Cc1ccccc1C(=O)Nc1ccc(C(=O)N2CCCC(O)c3cc(Cl)ccc32)c(C)c1 (stereo not drawn)
Result: NO

Request: Follow-up item: `CC(=O)O[C@H]1C[C@@H]2CC[C@H]3[C@H]4C[C@H]([N+]5(C)CCCCC5)[C@@H](OC(C)=O)[C@@]4(C)CC[C@@H]3[C@@]2(C)C[C@H]1N1CCCCC1`
Result: NO

Request: Field entry: `CCc1cnn2c(NCc3ccc[n+]([O-])c3)cc(N3CCCC[C@@H]3CCO)nc12`
Result: YES

Request: Entry `C#C[C@]1(O)CC[C@H]2[C@H]3CCc4cc(OC)ccc4[C@H]3CC[C@@]21C` please
Result: NO

Request: Try COc1cc(Oc2ccnc3cc(OC)c(OC)cc23)ccc1NC(=O)NC(C)c1nccs1 (stereo not drawn) next.
Result: YES

Sourced from PubChem BioAssay (NCATS)
